# Protocol details: NF-kB promoter reporter activators, neuronal cells, dose response, cell-based, SH-SY5Y, luciferase (AID 1241)
# Study conditions: fold induction
Measurement type: EC50

Sample records with EC50:
[[record]]
chemical_structure = "CC(C)c1cc(C(=O)Nc2ccc3c(c2)OCO3)no1"
recorded_result = "3.28 µM"

[[record]]
chemical_structure = "O=C(Nc1ccc2c(c1)CCC2)c1ccc(F)cc1"
recorded_result = "0.217 µM"

[[record]]
chemical_structure = "CC(/C=N/Nc1nc2ccccc2[nH]1)=C\\c1ccccc1"
recorded_result = "4.16 µM"

[[record]]
chemical_structure = "Cc1ccc2nc(/C=C/c3cccc(F)c3)ccc2c1"
recorded_result = "3.07 µM"


stdin: Recall and state the measured EC50 for Cc1ccc(N2Cc3ccccc3C2=S)cc1 .
stdout: 5.15 µM

stdin: Identify EC50 associated with the compound O=C(/C=C/Nc1ccc(F)c(F)c1)c1ccc(Br)cc1
stdout: 3.91 µM

stdin: Quick one: give measured EC50 for Cc1ccc2sc(-c3ccc(NC(=O)/C=C\C(=O)O)cc3)nc2c1
stdout: 4.83 µM

====

# Protocol details: NF-kB promoter reporter activators, neuronal cells, dose response, cell-based, SH-SY5Y, luciferase (AID 1241)
# Study conditions: fold induction
pEC50: −log10 of the molar value.
Using pEC50 as the sorting value, the categories are band A (below 5), band B (5 to below 6), band C (6 or more)

Before answering, review these 6 worked examples.
[[record]]
chemical_structure = "N#CC1=C2SC=C(c3ccc(Br)cc3)N2CCCC1=O"
cat = "band A"

[[record]]
chemical_structure = "COc1ccc(-c2cc(-c3cc(C)ccc3O)[nH]n2)cc1"
cat = "band A"

[[record]]
chemical_structure = "C(=N\\Nc1ncnc2ccccc12)/c1ccccc1"
cat = "band B"

[[record]]
chemical_structure = "Cc1ccc(C(=O)/C=C/Nc2ccccc2C(N)=O)cc1"
cat = "band C"

[[record]]
chemical_structure = "CCN(CC)C(=O)c1sc2nc(-c3ccccc3)ccc2c1N"
cat = "band B"

[[record]]
chemical_structure = "N#Cc1cccc(NCC(=O)Nc2ccc3c(c2)OCCO3)c1"
cat = "band B"


stdin: # bin lookup: classify Cc1ccc(N/C=C/C(=O)c2cccs2)cc1C by its pEC50
stdout: band C

====

# Protocol details: NF-kB promoter reporter activators, neuronal cells, dose response, cell-based, SH-SY5Y, luciferase (AID 1241)
# Study conditions: fold induction
Listing of recorded EC50 by entry.

Example compounds with recorded EC50:
[[record]]
compound = "Nc1ccc(-c2nc3ccc(C(=O)O)cc3s2)cc1"
measurement_type = "EC50"
recorded_result = "146 nM"

[[record]]
compound = "O=C(Cc1ccccc1)Nc1nc2ccccc2s1"
measurement_type = "EC50"
recorded_result = "29500 nM"

[[record]]
compound = "Cc1ccc(C2=NN(S(C)(=O)=O)C(c3ccc4c(c3)OCO4)C2)cc1 (stereo not drawn)"
measurement_type = "EC50"
recorded_result = "2650 nM"

[[record]]
compound = "O=C(CCCc1ccccc1)N1CCc2ccccc21"
measurement_type = "EC50"
recorded_result = "2570 nM"

[[record]]
compound = "Cc1cc(NC(=O)c2ccccc2)sc1C"
measurement_type = "EC50"
recorded_result = "17300 nM"

[[record]]
compound = "Cc1ccc(-n2c(C)cc(C(=O)CSc3nnnn3C)c2C)cc1"
measurement_type = "EC50"
recorded_result = "1320 nM"


stdin: Output measured EC50 for this item: COc1ccc(N=Cc2sc(O)c3ccccc23)cc1
stdout: 992 nM

stdin: Fill in EC50 for record c1cnc(SCCOc2ccc3c(c2)CCC3)nc1
stdout: 8800 nM

stdin: State its EC50 for this compound: Cc1[nH]n(-c2cccc(Cl)c2)c(=O)c1C=NCc1ccco1
stdout: 4940 nM

stdin: Quickly give me recorded EC50 for CSCCNC(=O)c1ccc(C(C)(C)C)cc1
stdout: 5250 nM

stdin: Report EC50 for Cn1c(-c2ccco2)nc2cc3ccccc3cc21
stdout: 816 nM

stdin: Provide only the value of recorded EC50 for Cc1ccc(NC(=O)/C(Cl)=C/c2ccccc2)cc1C
stdout: 2960 nM

stdin: Output EC50 of COc1ccc(-c2csc(N3C(=O)CNC3=S)n2)cc1
stdout: 935 nM
